Molecular target: mouse 5-HT2A (m5-HT2A) (Mus musculus, UniProt P35363)
Sequence (P35363 whole entry): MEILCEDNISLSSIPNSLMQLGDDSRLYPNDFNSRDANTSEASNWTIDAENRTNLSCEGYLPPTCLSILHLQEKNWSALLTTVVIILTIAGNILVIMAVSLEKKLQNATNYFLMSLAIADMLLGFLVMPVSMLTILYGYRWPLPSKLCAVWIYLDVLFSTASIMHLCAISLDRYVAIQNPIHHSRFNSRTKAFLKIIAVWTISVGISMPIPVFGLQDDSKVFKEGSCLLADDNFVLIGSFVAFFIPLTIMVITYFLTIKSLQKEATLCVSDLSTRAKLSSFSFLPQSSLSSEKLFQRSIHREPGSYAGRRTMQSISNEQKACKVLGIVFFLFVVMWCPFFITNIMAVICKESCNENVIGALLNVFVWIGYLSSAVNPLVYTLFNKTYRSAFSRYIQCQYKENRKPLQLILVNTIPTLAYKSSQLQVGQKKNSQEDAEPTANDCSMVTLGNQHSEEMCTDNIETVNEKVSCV
Assay: Gq-mediated calcium flux in Flp-In T-REx 293 cells
Assay type: cell-based
Details: EC50, nM, Ca^2+ flux
Please go through the items and note down their EC50.
# number only, unit nM dropped from output

Would you kindly share the measured EC50 for CCCC(=O)n1cc2c3c(cccc31)C1=C[C@@H](C(=O)N(CC)CC)CN(C)[C@@H]1C2 [1B-LSD, 1-butanoyl-D-lysergic acid diethylamide] ?
45

Which EC50 value is on record for CCN(CC)C(=O)[C@@H]1C=C2c3cccc4c3c(cn4C(C)=O)C[C@H]2N(C)C1 [ALD-52, 1-Acetyl-D-lysergic acid diethylamide] ?
12

---

Biological target: mouse 5-HT2A (m5-HT2A) (Mus musculus)
Test: Gq-mediated calcium flux in Flp-In T-REx 293 cells
Format: cell-based
Conditions: percent 5-HT maximum response
REPORTED_ENDPOINT: Emax % 5-HT (% 5-HT)
Your answer should be a plain number; it is taken to be in % 5-HT.

Would you mind telling me what Emax % 5-HT value was observed for CCCC(=O)n1cc2c3c(cccc31)C1=C[C@@H](C(=O)N(CC)CC)CN(C)[C@@H]1C2 [1B-LSD, 1-butanoyl-D-lysergic acid diethylamide] ?
35

Look up Emax % 5-HT for this compound: CCN(CC)C(=O)[C@@H]1C=C2c3cccc4c3c(cn4C(C)=O)C[C@H]2N(C)C1 [ALD-52, 1-Acetyl-D-lysergic acid diethylamide]
29

// query Emax % 5-HT value for entry CCC(=O)n1cc2c3c(cccc31)C1=C[C@@H](C(=O)N(CC)CC)CN(C)[C@@H]1C2 [1P-LSD, 1-propanoyl-D-lysergic acid diethylamide]
23

Dear colleague, I am looking for the recorded Emax % 5-HT of the following compound: CCN(CC)C(=O)[C@@H]1C=C2c3cccc4[nH]cc(c34)C[C@H]2N(C)C1 [LSD, D-lysergic acid diethylamide, reference compound]
86

---

REPORTED_ENDPOINT: Ki

Identify the measured Ki of CCCC(=O)n1cc2c3c(cccc31)C1=C[C@@H](C(=O)N(CC)CC)CN(C)[C@@H]1C2 [1B-LSD, 1-butanoyl-D-lysergic acid diethylamide] for H3 (Cavia porcellus).
> 10 µM

---

Biological target: 5-HT2B (Homo sapiens)
Sequence (P41595 whole entry): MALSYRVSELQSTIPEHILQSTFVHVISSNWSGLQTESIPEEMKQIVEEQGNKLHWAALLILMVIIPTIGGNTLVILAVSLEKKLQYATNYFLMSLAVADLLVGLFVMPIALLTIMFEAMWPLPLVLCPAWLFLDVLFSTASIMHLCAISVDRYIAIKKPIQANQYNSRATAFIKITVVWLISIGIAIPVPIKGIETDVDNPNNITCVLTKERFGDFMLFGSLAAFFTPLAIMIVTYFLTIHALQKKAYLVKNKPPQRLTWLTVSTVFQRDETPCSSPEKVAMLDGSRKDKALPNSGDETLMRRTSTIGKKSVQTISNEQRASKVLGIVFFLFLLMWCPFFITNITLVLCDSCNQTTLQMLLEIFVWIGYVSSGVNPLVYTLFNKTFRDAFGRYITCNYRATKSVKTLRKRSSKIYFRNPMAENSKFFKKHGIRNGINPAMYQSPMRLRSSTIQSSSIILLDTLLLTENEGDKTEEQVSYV
REPORTED_ENDPOINT: pKi
API: returns pKi as number; meaning -log10 of concentration in mol/L.

Entry under review: CCCC(=O)n1cc2c3c(cccc31)C1=C[C@@H](C(=O)N(CC)CC)CN(C)[C@@H]1C2 [1B-LSD, 1-butanoyl-D-lysergic acid diethylamide] . Reported pKi?
8.46

---

REPORTED_ENDPOINT: Ki (µM)
# unit: µM | format: bare number

// lookup Ki | system=human 5-HT1A receptor (Homo sapiens) | key= CCC(=O)n1cc2c3c(cccc31)C1=C[C@@H](C(=O)N(CC)CC)CN(C)[C@@H]1C2 [1P-LSD, 1-propanoyl-D-lysergic acid diethylamide]
0.637

Observed Ki on human 5-HT1A receptor (Homo sapiens) for CCCC(=O)n1cc2c3c(cccc31)C1=C[C@@H](C(=O)N(CC)CC)CN(C)[C@@H]1C2 [1B-LSD, 1-butanoyl-D-lysergic acid diethylamide] , please.
Sequence (P08908 whole entry): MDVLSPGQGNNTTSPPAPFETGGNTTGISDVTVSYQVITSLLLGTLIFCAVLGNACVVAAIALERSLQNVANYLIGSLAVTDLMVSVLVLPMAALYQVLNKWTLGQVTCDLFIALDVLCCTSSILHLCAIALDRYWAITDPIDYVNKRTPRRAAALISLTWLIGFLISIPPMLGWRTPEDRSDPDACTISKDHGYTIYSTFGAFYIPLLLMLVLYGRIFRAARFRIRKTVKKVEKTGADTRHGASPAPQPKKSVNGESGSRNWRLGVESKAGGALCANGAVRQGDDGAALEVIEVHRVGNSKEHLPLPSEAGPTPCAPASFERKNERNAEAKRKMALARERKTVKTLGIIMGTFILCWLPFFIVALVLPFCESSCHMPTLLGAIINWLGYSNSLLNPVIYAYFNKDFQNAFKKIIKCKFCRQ
0.345

# query: Ki | item CCN(CC)C(=O)[C@@H]1C=C2c3cccc4c3c(cn4C(C)=O)C[C@H]2N(C)C1 [ALD-52, 1-Acetyl-D-lysergic acid diethylamide] | system: human 5-HT1A receptor (Homo sapiens)
1.05

Source listed as paper PMC9191647.
